tested on: Arabidopsis thaliana (K31-4-2) transformed with a Kasalath-derived CYP72A31 gene; experiment: Drug sensitivity test on drug-containing MS medium, Arabidopsis thaliana transformed with Kasalath-derived CYP72A31 gene; assay type: in vivo; conditions: in vivo
assay.endpoint: Resistance of transformed Arabidopsis thaliana to the drug

COc1cc(OC)nc(NC(=O)NS(=O)(=O)N(C)S(C)(=O)=O)n1 [Amidosulfuron, amidosulfuron]: exhibited resistance
COc1cnc(OC)n2nc(NS(=O)(=O)c3c(OCC(F)F)cccc3C(F)(F)F)nc12 [Penoxsulam, penoxsulam]: exhibited resistance
COC(=O)c1ccccc1CS(=O)(=O)NC(=O)Nc1nc(OC)cc(OC)n1 [Bensulfuron-methyl, bensulfuron-methyl]: exhibited resistance
COc1cc(OC)nc(Sc2cccc(Cl)c2C(=O)O)n1 [Pyrithiobac-sodium, pyrithiobac-sodium]: exhibited resistance

---

tested on: Arabidopsis thaliana (K31-4-2) transformed with a Kasalath-derived CYP72A31 gene; experiment: Drug sensitivity test on drug-containing MS medium, Arabidopsis thaliana transformed with Kasalath-derived CYP72A31 gene; assay type: in vivo; settings: K31-4-2, drug 12 nM, day 14 after seeding
assay.endpoint: Rate of emerging of true leaf (%)
All answers are understood in %, so give the number only.

Take a look at these entries with their results.
COc1cc(OC)nc(NC(=O)NS(=O)(=O)c2ncccc2C(=O)N(C)C)n1: 100
COc1cc(OC)nc(Oc2cccc(Oc3nc(OC)cc(OC)n3)c2C(=O)O)n1 [BS, bispyribac sodium]: 100
CON=C(C)c1cccc(Oc2nc(OC)cc(OC)n2)c1C(=O)O: 100
CCCc1ccc2nc(Cl)c(S(=O)(=O)NC(=O)Nc3nc(OC)cc(OC)n3)n2n1: 100
CCOC(=O)c1cnn(C)c1S(=O)(=O)NC(=O)Nc1nc(OC)cc(OC)n1: 90

Pending molecule:
## Task What does the data say about its Rate of emerging of true leaf (%)? Entry: COc1cc(OC)nc(NC(=O)NS(=O)(=O)c2c(Cl)nc3ccccn23)n1
## Result 100

---

test system: Arabidopsis thaliana (K31-4-2) transformed with a Kasalath-derived CYP72A31 gene; test: Drug sensitivity test on drug-containing MS medium, Arabidopsis thaliana transformed with Kasalath-derived CYP72A31 gene; type: in vivo; settings: K31-4-2, drug 330 nM, day 14 after seeding
assay.endpoint: Rate of emerging of true leaf (%)
All answers are understood in %, so give the number only.

Take a look at these entries with their results.
COc1cc(OC)nc(Oc2cccc(Oc3nc(OC)cc(OC)n3)c2C(=O)O)n1 [BS, bispyribac sodium]: 80
COc1cc(OC)nc(NC(=O)NS(=O)(=O)c2c(Cl)nc3ccccn23)n1: 0
CON=C(C)c1cccc(Oc2nc(OC)cc(OC)n2)c1C(=O)O: 50
COc1cc(OC)nc(NC(=O)NS(=O)(=O)c2ncccc2C(=O)N(C)C)n1: 10
CCCc1ccc2nc(Cl)c(S(=O)(=O)NC(=O)Nc3nc(OC)cc(OC)n3)n2n1: 0

Pending compound:
## Task What does the data say about its Rate of emerging of true leaf (%)? Entry: CCOC(=O)c1cnn(C)c1S(=O)(=O)NC(=O)Nc1nc(OC)cc(OC)n1
## Result 0

---

test system: Arabidopsis thaliana (K31-4-2) transformed with a Kasalath-derived CYP72A31 gene; test: Drug sensitivity test on drug-containing MS medium, Arabidopsis thaliana transformed with Kasalath-derived CYP72A31 gene; assay type: in vivo; details: in vivo
The following molecules are listed with their measured Ratio of sensitivity values.
No unit in the answer, only the number.

COc1cc(OC)nc(NC(=O)NS(=O)(=O)N(C)S(C)(=O)=O)n1: 3

Pending molecule:
## Task What does the data say about its Ratio of sensitivity? Entry: COc1cc(OC)nc(Sc2cccc(Cl)c2C(=O)O)n1 [Pyrithiobac-sodium, pyrithiobac-sodium]
## Result 3

---

system: Arabidopsis thaliana (K31-4-2) transformed with a Kasalath-derived CYP72A31 gene; test: Drug sensitivity test on drug-containing MS medium, Arabidopsis thaliana transformed with Kasalath-derived CYP72A31 gene; assay type: in vivo; details: K31-4-2, drug 37 nM, day 14 after seeding
assay.endpoint: Rate of emerging of true leaf (%)
Answer with the number, then the unit.

Take a look at these entries with their results.
CCOC(=O)c1cnn(C)c1S(=O)(=O)NC(=O)Nc1nc(OC)cc(OC)n1 [Pyrazosulfuron-ethyl, pyrazosulfuron-ethyl]: 0%
CCCc1ccc2nc(Cl)c(S(=O)(=O)NC(=O)Nc3nc(OC)cc(OC)n3)n2n1 [Propyrisulfuron, propyrisulfuron]: 70%
CON=C(C)c1cccc(Oc2nc(OC)cc(OC)n2)c1C(=O)O [Pyriminobac, pyriminobac]: 100%
COc1cc(OC)nc(NC(=O)NS(=O)(=O)c2ncccc2C(=O)N(C)C)n1 [Nicosulfuron, nicosulfuron]: 100%
COc1cc(OC)nc(Oc2cccc(Oc3nc(OC)cc(OC)n3)c2C(=O)O)n1 [BS, bispyribac sodium]: 100%

Pending molecule:
## Task What does the data say about its Rate of emerging of true leaf (%)? Entry: COc1cc(OC)nc(NC(=O)NS(=O)(=O)c2c(Cl)nc3ccccn23)n1 [Imazosulfuron, imazosulfuron]
## Result 100%

---

tested on: non-transformed Arabidopsis thaliana (NT); assay: Drug sensitivity test on drug-containing MS medium, non-transformed Arabidopsis thaliana; format: in vivo; conditions: drug 12 nM, day 14 after seeding
The following compounds are listed with their measured Rate of emerging of true leaf (%) values.

Take a look at these entries with their results.
COc1cc(OC)nc(NC(=O)NS(=O)(=O)N(C)S(C)(=O)=O)n1: 0%
COC(=O)c1ccccc1CS(=O)(=O)NC(=O)Nc1nc(OC)cc(OC)n1: 0%
COc1cc(OC)nc(Oc2cccc(Oc3nc(OC)cc(OC)n3)c2C(=O)O)n1 [BS, bispyribac sodium]: 50%
CON=C(C)c1cccc(Oc2nc(OC)cc(OC)n2)c1C(=O)O: 10%
CCOC(=O)c1cnn(C)c1S(=O)(=O)NC(=O)Nc1nc(OC)cc(OC)n1: 0%
CCCc1ccc2nc(Cl)c(S(=O)(=O)NC(=O)Nc3nc(OC)cc(OC)n3)n2n1: 0%
COc1cc(OC)nc(NC(=O)NS(=O)(=O)c2c(Cl)nc3ccccn23)n1: 0%
COc1cc(OC)nc(NC(=O)NS(=O)(=O)c2ncccc2C(=O)N(C)C)n1: 0%

Pending compound:
## Task What does the data say about its Rate of emerging of true leaf (%)? Entry: COc1cnc(OC)n2nc(NS(=O)(=O)c3c(OCC(F)F)cccc3C(F)(F)F)nc12
## Result 0%
